// provenance: ChEMBL document CHEMBL1158268

Test system: Platelet
Assay: Inhibition of arachidonic acid-induced platelet aggregation in rabbit platelet-rich plasma at 100 ug/ml by turbidimetric method
Assay type: functional, Oryctolagus cuniculus
Design: scale not given: the % may be the effect or the level left
Labelling: Activity reported below 40% becomes Criterion met; at or above becomes Criterion not met.

1. COc1cc2c(cc1OC)[C@H](Cc1ccc(O)cc1)N(C)CC2.O=C(O)C(=O)O; Criterion not met
2. COc1cc(CC[N+](C)(C)[O-])c2ccc3ccccc3c2c1OC; Criterion met
3. COc1cc2c(cc1OC)[C@@H](Cc1ccc(O)cc1)N(C)CC2.O=C(O)C(=O)O; Criterion not met
4. COc1cc2c(cc1O)[C@@H](Cc1ccc(O)cc1)[N+](C)(C)CC2.[I-] [MAGNOCURARINE IODIDE]; Criterion not met
5. COc1ccc(C[C@@H]2c3cc(OC)c(OC)cc3CCN2C)cc1OC; Criterion not met
6. COc1cc2c(cc1O)C(Cc1ccc(O)cc1)NCC2 (racemic); Criterion met

Input: Say whether its Activity is strictly beneath 40%. Entry: COc1cc(CCN(C)C)c2ccc3ccccc3c2c1OC.[O-][Cl+3]([O-])([O-])O [ATHEROSPERMININE HCLO4]
Output: Criterion met

Input: # TODO verify Activity < 40% strictly for this compound: COc1cc2ccc3c(CCN(C)C)cc4c(c3c2cc1OC)OCO4
Output: Criterion not met

----------
Task for the reader: assign each of the following compounds its reported Activity.
System: Platelet
Assay: Inhibition of arachidonic acid-induced platelet aggregation in rabbit platelet-rich plasma at 100 ug/ml by turbidimetric method
Format: functional, Oryctolagus cuniculus
Set-up: scale not given: the % may be the effect or the level left
Give bare numbers, in %.

Use the examples below as a reference point.
1. COc1cc2c(cc1O)C(Cc1ccc(O)cc1)N(C)CC2 (racemic); 13.8
2. COc1cc2c(cc1OC)[C@H](Cc1ccc(O)cc1)NCC2.[O-][Cl+3]([O-])([O-])O; 60.5
3. COc1ccc(C[C@@H]2NCCc3cc(OC)c(OC)cc32)cc1.O=C(O)C(=O)O; 87.3

For each of the items listed, what is its Activity?
1. COc1cc2c(cc1OC)C(Cc1ccc(O)cc1)NCC2 (racemic)
2. COc1cc2c(cc1OC)[C@H](Cc1ccc(O)cc1)[N+](C)(C)CC2.[I-]
3. COc1ccc(C[C@H]2NCCc3cc(OC)c(OC)cc32)cc1
4. COc1cc2c(cc1OC)[C@H](Cc1ccc(O)cc1)NCC2
5. COc1cc2ccc3c(CC[N+](C)(C)[O-])cc(OC)c(OC)c3c2cc1OC
6. COc1cc(CC[N+](C)(C)C)c2ccc3ccccc3c2c1OC.[I-]

Output:
1. 49.7
2. 66.8
3. 89.2
4. 75.5
5. 83.5
6. 0

----------
System: Platelet
Assay: Inhibition of collagen-induced platelet aggregation in rabbit platelet-rich plasma at 100 ug/ml by turbidimetric method
Type: functional, Oryctolagus cuniculus
Parameters: scale not given: the % may be the effect or the level left
experimental endpoint: Activity (%)
Answers are plain numbers, in %.

# count of solved cases: 4
1. COc1cc2c(cc1OC)[C@H](Cc1ccc(O)cc1)N(C)CC2.O=C(O)C(=O)O; 82.4
2. COc1cc2c(cc1O)C(Cc1ccc(O)cc1)N(C)CC2 (racemic) [METHYL COCLAURINE]; 24.8
3. COc1cc2c(cc1OC)[C@@H](Cc1ccc(O)cc1)N(C)CC2.O=C(O)C(=O)O; 88.4
4. COc1cc(CC[N+](C)(C)[O-])c2ccc3ccccc3c2c1OC; 0

Continue with the compound presented below.
Input: Quickly give me recorded Activity for COc1ccc(C[C@H]2NCCc3cc(OC)c(OC)cc32)cc1
Output: 79.2

----------
System: Platelet
Assay: Inhibition of adenosine diphosphate-induced platelet aggregation in rabbit platelet-rich plasma at 100 ug/ml by turbidimetric method
Assay type: functional, Oryctolagus cuniculus
Parameters: scale not given: the % may be the effect or the level left
Please respond with reported Activity for every item in the list.
Give bare numbers, in %.

1) COc1cc(CCN(C)C)c2ccc3ccccc3c2c1OC.[O-][Cl+3]([O-])([O-])O [ATHEROSPERMININE HCLO4]; 0
2) COc1cc(CC[N+](C)(C)C)c2ccc3ccccc3c2c1OC.[I-]; 0
3) COc1cc(CC[N+](C)(C)[O-])c2ccc3ccccc3c2c1OC; 37.4
4) COc1cc2c(cc1O)C(Cc1ccc(O)cc1)N(C)CC2 (racemic); 73.6
5) COc1cc2c(cc1O)[C@@H](Cc1ccc(O)cc1)[N+](C)(C)CC2.[I-] [MAGNOCURARINE IODIDE]; 69

For every record below, what is its Activity?
1. COc1cc2c(cc1O)C(Cc1ccc(O)cc1)NCC2 (racemic)
2. COc1cc2c(cc1OC)C(Cc1ccc(O)cc1)NCC2 (racemic)
3. COc1ccc(C[C@@H]2NCCc3cc(OC)c(OC)cc32)cc1.O=C(O)C(=O)O
4. COc1cc2c(cc1OC)[C@H](Cc1ccc(O)cc1)NCC2
5. COc1cc2ccc3c(CCN(C)C)cc4c(c3c2cc1OC)OCO4
6. COc1ccc(C[C@H]2NCCc3cc(OC)c(OC)cc32)cc1

Output:
1: 70.2; 2: 30.4; 3: 93.4; 4: 69.7; 5: 34.9; 6: 93.1

Items follow; give Activity for each.
1. COc1ccc(C[C@@H]2c3cc(OC)c(OC)cc3CCN2C)cc1OC
2. COc1cc2ccc3c(CC[N+](C)(C)[O-])cc(OC)c(OC)c3c2cc1OC
3. COc1ccc(C[C@H]2c3cc(O)c(OC)cc3CCN2C)cc1O [(S)-RETICULINE]

Output:
92.2
74.6
58.7

Look up Activity for the entries below, preserving their order.
1. COc1cc2c(cc1OC)[C@H](Cc1ccc(O)cc1)[N+](C)(C)CC2.[I-]
2. COc1cc2c(cc1OC)[C@H](Cc1ccc(O)cc1)N(C)CC2.O=C(O)C(=O)O
3. COc1cc2c(cc1OC)[C@H](Cc1ccc(O)cc1)NCC2.[O-][Cl+3]([O-])([O-])O
4. COc1cc2c(cc1OC)[C@@H](Cc1ccc(O)cc1)N(C)CC2.O=C(O)C(=O)O

Output:
1: 93.7; 2: 89.7; 3: 63.1; 4: 92.7
